Test system: Escherichia coli TOP10
Procedure summary: shrunken log2 fold change of peptide-encoding DNA abundance (4.5 h post-induction vs induction); higher = less antimicrobial activity (less host growth inhibition)
Condition context: time post-induction: 4.5 h; library: site-saturation at positions 5, 18, 19, 20
List of shrunken log2 fold change values.

Worked cases, answers included:
Name the value of shrunken log2 fold change reported for RRIRIRPPRLPRPRPRPWKVPRP when tested on Escherichia coli TOP10.
0.0349

Name the value of shrunken log2 fold change reported for RRIRARPPRLPRPRPRPGDWPRP when tested on Escherichia coli TOP10.
0.8

Name the value of shrunken log2 fold change reported for RRIRIRPPRLPRPRPRPWSMPRP when tested on Escherichia coli TOP10.
-0.00809

Name the value of shrunken log2 fold change reported for RRIRFRPPRLPRPRPRPPAYPRP when tested on Escherichia coli TOP10.
0.127

Name the value of shrunken log2 fold change reported for RRIRDRPPRLPRPRPRPNTWPRP when tested on Escherichia coli TOP10.
0.23

Name the value of shrunken log2 fold change reported for RRIRIRPPRLPRPRPRPCPWPRP when tested on Escherichia coli TOP10.
-0.161

Name the value of shrunken log2 fold change reported for RRIRKRPPRLPRPRPRPHVAPRP when tested on Escherichia coli TOP10.
0.0884

Name the value of shrunken log2 fold change reported for RRIRKRPPRLPRPRPRPRQKPRP when tested on Escherichia coli TOP10.
-0.0264

Others:
Name the value of shrunken log2 fold change reported for RRIRTRPPRLPRPRPRPFIWPRP when tested on Escherichia coli TOP10.
-0.485

Name the value of shrunken log2 fold change reported for RRIRMRPPRLPRPRPRPCFWPRP when tested on Escherichia coli TOP10.
0.237

Name the value of shrunken log2 fold change reported for RRIRTRPPRLPRPRPRPCRFPRP when tested on Escherichia coli TOP10.
-0.265

Name the value of shrunken log2 fold change reported for RRIRLRPPRLPRPRPRPVTPPRP when tested on Escherichia coli TOP10.
-0.0834

Name the value of shrunken log2 fold change reported for RRIRDRPPRLPRPRPRPLTSPRP when tested on Escherichia coli TOP10.
0.109

Name the value of shrunken log2 fold change reported for RRIRYRPPRLPRPRPRPIRQPRP when tested on Escherichia coli TOP10.
-0.0123

Name the value of shrunken log2 fold change reported for RRIRFRPPRLPRPRPRPDRRPRP when tested on Escherichia coli TOP10.
-0.39

Name the value of shrunken log2 fold change reported for RRIRMRPPRLPRPRPRPLKSPRP when tested on Escherichia coli TOP10.
0.11

Name the value of shrunken log2 fold change reported for RRIRIRPPRLPRPRPRPCITPRP when tested on Escherichia coli TOP10.
-0.0326

Name the value of shrunken log2 fold change reported for RRIRMRPPRLPRPRPRPCSQPRP when tested on Escherichia coli TOP10.
-0.00549

Name the value of shrunken log2 fold change reported for RRIRNRPPRLPRPRPRPRNQPRP when tested on Escherichia coli TOP10.
-0.182

Name the value of shrunken log2 fold change reported for RRIRSRPPRLPRPRPRPITQPRP when tested on Escherichia coli TOP10.
-0.0534

Name the value of shrunken log2 fold change reported for RRIRVRPPRLPRPRPRPDPNPRP when tested on Escherichia coli TOP10.
-0.231

Name the value of shrunken log2 fold change reported for RRIRTRPPRLPRPRPRPGWWPRP when tested on Escherichia coli TOP10.
0.158

Name the value of shrunken log2 fold change reported for RRIRSRPPRLPRPRPRPFPLPRP when tested on Escherichia coli TOP10.
-0.886

Name the value of shrunken log2 fold change reported for RRIRSRPPRLPRPRPRPHQDPRP when tested on Escherichia coli TOP10.
-0.117

Name the value of shrunken log2 fold change reported for RRIRIRPPRLPRPRPRPEPSPRP when tested on Escherichia coli TOP10.
3.27

Name the value of shrunken log2 fold change reported for RRIRNRPPRLPRPRPRPMHRPRP when tested on Escherichia coli TOP10.
-0.0926

Name the value of shrunken log2 fold change reported for RRIRIRPPRLPRPRPRPEFKPRP when tested on Escherichia coli TOP10.
0.387

Name the value of shrunken log2 fold change reported for RRIRPRPPRLPRPRPRPNCVPRP when tested on Escherichia coli TOP10.
-0.0731

Name the value of shrunken log2 fold change reported for RRIRTRPPRLPRPRPRPKDQPRP when tested on Escherichia coli TOP10.
-0.0284

Name the value of shrunken log2 fold change reported for RRIRVRPPRLPRPRPRPSYVPRP when tested on Escherichia coli TOP10.
-0.66

Name the value of shrunken log2 fold change reported for RRIRPRPPRLPRPRPRPHYYPRP when tested on Escherichia coli TOP10.
-0.439

Name the value of shrunken log2 fold change reported for RRIRYRPPRLPRPRPRPGRIPRP when tested on Escherichia coli TOP10.
0.0959

Name the value of shrunken log2 fold change reported for RRIRTRPPRLPRPRPRPRWRPRP when tested on Escherichia coli TOP10.
0.483

Name the value of shrunken log2 fold change reported for RRIRSRPPRLPRPRPRPFVWPRP when tested on Escherichia coli TOP10.
-0.0361

Name the value of shrunken log2 fold change reported for RRIRIRPPRLPRPRPRPHPVPRP when tested on Escherichia coli TOP10.
0.0514

Name the value of shrunken log2 fold change reported for RRIRFRPPRLPRPRPRPALTPRP when tested on Escherichia coli TOP10.
0.248

Name the value of shrunken log2 fold change reported for RRIRHRPPRLPRPRPRPKMPPRP when tested on Escherichia coli TOP10.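 Note: peptides expressed intracellularly from a pBAD plasmid library in pooled LB shake-flask culture, induced with 0.3% L-arabinose, DNA abundance read by NGS, three biological replicates, DESeq2 with apeglm shrinkage.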
-0.0334

Values were extracted from the supplement of paper PMC9112550.
